# residual activity per record follows
study.system: HIPK2 (human) (UniProt Q9H2X6)
Sequence (Q9H2X6 whole entry, looked up): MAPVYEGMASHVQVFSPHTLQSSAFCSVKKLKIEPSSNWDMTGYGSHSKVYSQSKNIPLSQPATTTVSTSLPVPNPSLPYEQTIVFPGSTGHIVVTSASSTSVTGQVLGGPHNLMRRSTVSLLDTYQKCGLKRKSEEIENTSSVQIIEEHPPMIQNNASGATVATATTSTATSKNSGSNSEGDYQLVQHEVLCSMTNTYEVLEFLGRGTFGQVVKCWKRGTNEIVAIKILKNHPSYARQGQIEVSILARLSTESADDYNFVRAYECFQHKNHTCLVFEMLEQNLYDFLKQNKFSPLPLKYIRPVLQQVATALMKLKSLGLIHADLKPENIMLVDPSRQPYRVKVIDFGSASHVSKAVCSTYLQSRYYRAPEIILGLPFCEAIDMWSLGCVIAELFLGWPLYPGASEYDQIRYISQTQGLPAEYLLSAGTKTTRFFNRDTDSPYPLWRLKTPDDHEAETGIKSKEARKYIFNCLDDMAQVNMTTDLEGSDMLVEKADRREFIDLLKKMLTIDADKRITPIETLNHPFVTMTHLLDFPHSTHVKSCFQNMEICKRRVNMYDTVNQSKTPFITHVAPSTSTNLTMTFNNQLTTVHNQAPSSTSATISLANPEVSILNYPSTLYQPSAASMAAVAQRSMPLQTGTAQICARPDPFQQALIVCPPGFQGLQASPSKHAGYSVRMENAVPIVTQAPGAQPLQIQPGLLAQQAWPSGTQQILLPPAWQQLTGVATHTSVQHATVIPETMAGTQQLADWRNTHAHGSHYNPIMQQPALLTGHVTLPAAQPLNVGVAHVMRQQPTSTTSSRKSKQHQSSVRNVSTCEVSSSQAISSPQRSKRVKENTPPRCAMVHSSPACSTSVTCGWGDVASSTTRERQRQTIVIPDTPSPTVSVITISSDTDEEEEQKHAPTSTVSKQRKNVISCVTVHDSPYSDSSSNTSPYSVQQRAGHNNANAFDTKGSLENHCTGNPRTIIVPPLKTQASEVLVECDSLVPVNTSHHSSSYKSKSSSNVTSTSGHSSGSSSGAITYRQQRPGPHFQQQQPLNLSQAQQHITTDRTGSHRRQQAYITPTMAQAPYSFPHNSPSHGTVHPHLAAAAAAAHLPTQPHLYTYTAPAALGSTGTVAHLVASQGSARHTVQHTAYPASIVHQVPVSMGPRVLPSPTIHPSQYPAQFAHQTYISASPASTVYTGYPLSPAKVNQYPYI
protocol.summary: radiometric filter-binding kinase assay, Kinase HotSpot
assay.context: compound 0.5 µM; ATP 10 µM
Report the figure in % without appending any unit label.

Fc1ccc(-c2nc3n(c2-c2ccncc2)CCS3)cc1 :: 99.2
COc1cc2ncnc(Nc3ccc(Oc4ccccc4)cc3)c2cc1OC :: 94.8
c1ccc2c(-c3ccncc3)c[nH]c2c1 :: 94.1
NC(=O)c1cccc(-c2cc(Nc3ccc(OC(F)(F)F)cc3)ncn2)c1 :: 102
Cn1c2ccccc2c2c3c(c4c5ccccc5n(CCC#N)c4c21)CNC3=O :: 97.8
COc1ccc(Cl)cc1NC(=O)Nc1cc(C)nc2ccccc12 :: 101
CC(C)(C)c1cc(C=C(C#N)C#N)cc(Br)c1O :: 110
CN(C)c1ccc(/C=C2\C(=O)Nc3ccccc32)cc1 :: 106
O=C1C(Cl)=C(N2C(=O)CCC2=O)C(=O)c2ccccc21 :: 104
CN(C)CCCn1cc(C2=C(c3c[nH]c4ccccc34)C(=O)NC2=O)c2ccccc21 :: 77.5

Q: Fill in: residual activity of `CO[C@@H]1[C@H](N(C)C(=O)c2ccccc2)C[C@H]2O[C@]1(C)n1c3ccccc3c3c4c(c5c6ccccc6n2c5c31)C(=O)NC4` is ___
Result: 106

Q: Fill in: residual activity of `Cc1nc(-c2ccccc2)c(-c2ccncc2)o1` is ___
Result: 95.5

Q: Fill in: residual activity of `COc1cc2ncnc(Nc3ccc(OCc4ccccc4)cc3)c2cc1OC` is ___
Result: 111

Q: Fill in: residual activity of `Ic1cccc(CSc2nnc(-c3ccncc3)o2)c1` is ___
Result: 102
